B1: KLHDC10 (parent)
chain: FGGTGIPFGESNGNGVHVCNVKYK

variants of: B1; experiment: protein stability index of a GFP-peptide fusion (GPS, HEK-293T) (PSI 1-6); higher = more stable; conditions: c terminus: a fixed tail appended;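 note: lentivirally expressed fusions sorted by FACS into six bins by GFP to DsRed ratio, PSI derived from sequencing read proportions per bin multiplied by bin number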
// label = 1.0 if protein stability index is not less than 2, otherwise 0.0

# count of solved cases: 5
FGTTGIPFGESNGNGVHVCNVKYK [G3T] | 1.0
FGGTGIPFGVSNGNGVHVCNVKYK [E10V] | 1.0
FGGTGIPFGESNGNGVHVANVKYK [C19A] | 1.0
FGGTGIPFGDSNGNGVHVCNVKYK [E10D] | 0.0
FGGTTIPFGESNGNGVHVCNVKYK [G5T] | 1.0

Q: # check: protein stability index of FGGTGIPFGEDNGNGVHVCNVKYK [S11D] is greater than or equal to 2
Result: 1.0

Q: Reported protein stability index at or above 2? FGGTGIPFGESNGNGVHVCNVPYK [K22P]
Result: 0.0

Q: hey, is protein stability index for this one >= 2? FGGTGIPFGTSNGNGVHVCNVKYK [E10T]
Result: 0.0

Q: Is it the case that FGGTGIPFGESNGNGVHVWNVKYK [C19W] has protein stability index reaching or exceeding 2?
Result: 0.0

Q: Is protein stability index for FGQTGIPFGESNGNGVHVCNVKYK [G3Q] at or above 2?
Result: 1.0

Q: Tell me whether protein stability index is at least 2 here: FGGTGIPFGESNGDGVHVCNVKYK [N14D]
Result: 0.0

Q: Record FGGTGIPFYESNGNGVHVCNVKYK [G9Y] ; criterion: protein stability index no lower than 2. Met?
Result: 1.0

Q: Threshold query (protein stability index >= 2) on FGGTGIPFGEENGNGVHVCNVKYK [S11E]
Result: 1.0

Q: # check: protein stability index of FGGTGIPFGESNKNGVHVCNVKYK [G13K] is greater than or equal to 2
Result: 1.0

Q: Could you tell me if the measured protein stability index of FGGTGIHFGESNGNGVHVCNVKYK [P7H] reaches 2 or more?
Result: 1.0

Q: Assess whether reported protein stability index for FEGTGIPFGESNGNGVHVCNVKYK [G2E] sits at 2 or higher.
Result: 1.0

Q: Can FGGTGIPFGESNGNGVHVFNVKYK [C19F] be said to have protein stability index at or above 2?
Result: 1.0

Q: Would you say FGGTGIPFIESNGNGVHVCNVKYK [G9I] shows protein stability index at minimum 2?
Result: 1.0

Q: Threshold query (protein stability index >= 2) on FGGTGIPFGESNGNGVHVHNVKYK [C19H]
Result: 0.0

Q: In plain terms: is recorded protein stability index at least 2 for DGGTGIPFGESNGNGVHVCNVKYK [F1D] ?
Result: 1.0

Q: Given the entry FGGTGIPFGESNGNGVHVCNIKYK [V21I] , answer whether its protein stability index meets or surpasses 2.
Result: 1.0

Q: Reported protein stability index reaches at least 2 for FGATGIPFGESNGNGVHVCNVKYK [G3A] ?
Result: 1.0

Q: Could you tell me if the measured protein stability index of FGGTGIPFGESNCNGVHVCNVKYK [G13C] reaches 2 or more?
Result: 0.0

Q: Decide: protein stability index of FGGTGIPFGESNGHGVHVCNVKYK [N14H] >= 2?
Result: 1.0

Q: Assess whether reported protein stability index for FGGHGIPFGESNGNGVHVCNVKYK [T4H] sits at 2 or higher.
Result: 0.0

Q: Kindly determine if protein stability index recorded for FGGTGIPFGESNGNGVHVCNVKRK [Y23R] is above or exactly 2.
Result: 1.0

Q: Reported protein stability index reaches at least 2 for FGGTGIPFDESNGNGVHVCNVKYK [G9D] ?
Result: 1.0

Q: Would you say FGGTGIPFGESNGNGVHVCNVKNK [Y23N] shows protein stability index at minimum 2?
Result: 1.0
